system_tested: human IL-1β (human, UniProt P01584 117-269)
assay: cell-based or functional assay
Each item that follows carries a reported ND50.

[
  {
    "binder": "ABT2-8 (other) VL: DIQMTQSPSSLSASVGDRVTITCRASQSIKSMLAWYQQKPGKAPKLLIYMASNLQSGVPSRFSGSGSGTDFTLTISSLQPEDFATYYCQQTIVKPSTFGQGTKVEIKR",
    "reading_qualifier": ">",
    "ND50, nM": 20000
  },
  {
    "binder": "ABT2-65-510 (other) VH: EVQLLESGGGLVQPGGSLRLSCVASGFTFEDYQMGWVRQAPGKGLEWVSSISAMGNRTYYADSVKGRFTISRDDSENTLYLQMNSLRAEDTAVYYCAQNLVRLGRSRWMFDYWGQGTLVTVSS",
    "reading_qualifier": "=",
    "ND50, nM": 1
  },
  {
    "binder": "ABT2-76 (other) VL: DIQMTQSPSSLSASVGDRVTITCRASQSIDRWLAWYQQKPGKAPKLLIYRGSILQSGVPSRFSGSGSGTDFTLTISSLQPEDFATYYCQQVAFWPPTFGQGTKVEIKR",
    "reading_qualifier": "=",
    "ND50, nM": 500
  },
  {
    "binder": "ABT2-65-6 (other, VH dAb) VH: EVQLLESGGGLVQPGGSLRLSCAASGFTFEDYQMGWVRQAPGKGLEWVSSISAMGNRTYYADSVKGRFTISRDDSKNTLYLQMNSLRAEDTAVYYCAQNLVRTQSKMWMFDYWGQGTLVTVSS",
    "reading_qualifier": ">",
    "ND50, nM": 1000
  },
  {
    "binder": "ABT2-65-34 (other) VH: EVQLLESGGGLVQPGGSLRLSCAASGFTFEDYQMGWVRQAPGKGLEWVSSISAMGNRTYYADSVKGRFTISRDDSKNTLYLQMNSLRAEDTAVYYCAQNLVRTRSKRWMFDYWGQGTLVTVSS",
    "reading_qualifier": "=",
    "ND50, nM": 20
  },
  {
    "binder": "ABT2-65-82 (other, VH dAb) VH: EVQLLESGGGLVRPGGSLRLSCVASGFTFEDYQMGWVRQAPGKGLEWVSSISAMGNRTYYADSVKGRFTISRDDPKNTLYLQMNSLRAEDTAVYYCAQNLVRLGRSRWMFDYWGQGTLVTVSS",
    "reading_qualifier": "=",
    "ND50, nM": 2
  },
  {
    "binder": "ABT2-11 (other) VH: EVQLLESGGGLVQPGGSLRLSCAASGFTFDNYSMTWVRQAPGKGLEWVSAISGSGGSTYYADSVKGRFTISRDNSKNTLYLQMNSLRAEDTAVYYCAKCIDRLPCLFDYWGQGTLVTVSS",
    "reading_qualifier": ">",
    "ND50, nM": 10000
  },
  {
    "binder": "ABT2-62 (other, VK dAb) VL: DIQMTQSPSSLSASVGDRVTITCRASQSIQTYLSWYQQKPGKAPKLLIYNASNLQSGVPSRFSGSGSGTDFTLTISSLQPEDFATYYCQQRALYPTTFGQGTKVEIKR",
    "reading_qualifier": ">",
    "ND50, nM": 1000
  }
]
